target: NDM-1 (Klebsiella pneumoniae); assay: In vitro enzyme inhibition assay, purified recombinant NDM-1; format: biochemical; conditions: IC50 NDM-1 - Zn, Zn2+-depleted (Chelex-100-treated) buffer
Sequence (C7C422 29-270, looked up, species assumed): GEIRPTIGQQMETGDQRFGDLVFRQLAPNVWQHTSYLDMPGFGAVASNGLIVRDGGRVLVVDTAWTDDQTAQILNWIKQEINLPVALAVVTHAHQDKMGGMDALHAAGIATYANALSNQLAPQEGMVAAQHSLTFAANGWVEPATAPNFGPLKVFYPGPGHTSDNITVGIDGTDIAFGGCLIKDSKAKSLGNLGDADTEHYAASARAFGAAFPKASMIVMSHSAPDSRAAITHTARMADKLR
pIC50: −log10 of the molar value.
endpoint-label: pIC50

> print(dat)
                            smiles.notation  assay.value
1  N[C@@H](CN[C@@H](CN[C@@H](CC(=O)O)C(=O)O)C(=O)O)CSc1ccc(O)cc1       < 3.30
2  CCCSC[C@@H](N)CN[C@@H](CN[C@@H](CC(=O)O)C(=O)O)C(=O)O       < 3.30
3  N[C@@H](CN[C@@H](CN[C@@H](CC(=O)O)C(=O)O)C(=O)O)CSCCO       < 3.30

====

test: Zn2+ affinity by competition with colorimetric PAR assay; type: binding; settings: read-out: Kd,Zn2; PAR 100 μM, ZnSO4 10 μM, pH 7.5, 3 h at 25 °C
endpoint-label: Kd (nM)

> print(dat)
                                   compound  assay.value
1  CCCSC[C@@H](N)CN[C@@H](CN[C@@H](CC(=O)O)C(=O)O)C(=O)O          109
2  N[C@@H](CN[C@@H](CN[C@H](C(=O)O)c1ccc(O)cc1)C(=O)O)C(=O)O          9.5
3  N[C@@H](CN[C@@H](CN[C@@H](Cc1ccc(OP(=O)(O)O)cc1)C(=O)O)C(=O)O)C(=O)O (mixture of isomers)         10.8
4  N[C@@H](CN[C@@H](CNC(CS)C(=O)O)C(=O)O)C(=O)O (stereo in doubt) [Compound 11]          0.2
5  N[C@@H](CN[C@@H](CN[C@@H](Cc1cccs1)C(=O)O)C(=O)O)C(=O)O          4.2
6  NC(=O)C[C@H](NC[C@H](NC[C@H](N)C(=O)O)C(=O)O)C(=O)O            1

====

target: NDM-1 (Klebsiella pneumoniae); assay: In vitro enzyme inhibition assay, purified recombinant NDM-1; format: biochemical; settings: IC50 NDM-1 - Zn, Zn2+-depleted (Chelex-100-treated) buffer
pIC50: −log10 of the molar value.
endpoint-label: pIC50

> print(dat)
                                    compound  assay.value
 1  NC(Cc1ccc(O)cc1)C(=O)N[C@@H](CN[C@@H](CN[C@@H](CC(=O)O)C(=O)O)C(=O)O)C(=O)O (stereo in doubt)       < 3.30
 2  NC(=O)C[C@H](NC[C@H](NC[C@H](N)C(=O)O)C(=O)O)C(=O)O       < 3.00
 3  N[C@@H](CN[C@@H](CN[C@@H](Cc1ccc(O)cc1)C(=O)O)C(=O)O)C(=O)O         3.76
 4  N[C@@H](CN[C@@H](CN[C@@H](CC(=O)O)C(=O)O)CSc1ccccc1)C(=O)O       < 3.30
 5  N[C@@H](CN[C@@H](CN[C@H](C(=O)O)c1ccc(O)cc1)C(=O)O)C(=O)O         4.64
 6  N[C@@H](CN[C@@H](CN[C@@H](CCS)C(=O)O)C(=O)O)C(=O)O       < 3.00
 7  CN[C@@H](CN[C@@H](CN[C@@H](CC(=O)O)C(=O)O)C(=O)O)C(=O)O       < 3.30
 8  NCC(=O)N[C@@H](CN[C@@H](CN[C@@H](CC(=O)O)C(=O)O)C(=O)O)C(=O)O       < 3.30
 9  N[C@@H](CN[C@@H](CNC(CS)C(=O)O)C(=O)O)C(=O)O (stereo in doubt) [Compound 11]         4.67
10  N[C@@H](CN[C@@H](CN[C@@H](Cc1c[nH]cn1)C(=O)O)C(=O)O)C(=O)O         3.76
11  N[C@@H](CN[C@@H](CNC(CS)C(=O)O)C(=O)O)C(=O)O (stereo in doubt) [Compound 12]         5.24
12  N=C(N)NCCC[C@H](NC[C@H](NC[C@H](N)C(=O)O)C(=O)O)C(=O)O       < 3.00
13  N[C@@H](CN[C@@H](CN[C@@H](CO)C(=O)O)C(=O)O)C(=O)O       < 3.00

====

tested on: E. coli expressing blaNDM-1; experiment: Meropenem rescue concentration, antimicrobial susceptibility test; format: cell-based, Escherichia coli; details: rescue concentration at meropenem 2 μg/mL, MHB
endpoint-label: RC in MHB, NDM-1

> print(dat)
                                   compound                 assay.target    endpoint.label  assay.value
1  N[C@@H](CN[C@@H](CNC(CS)C(=O)O)C(=O)O)C(=O)O (stereo in doubt) [Compound 12]  E. coli expressing blaNDM-1  RC in MHB, NDM-1     32 µg/mL
2  N=C(N)NCCC[C@H](NC[C@H](NC[C@H](N)C(=O)O)C(=O)O)C(=O)O  E. coli expressing blaNDM-1  RC in MHB, NDM-1    >64 µg/mL
3  NCC(=O)N[C@@H](CN[C@@H](CN[C@@H](CC(=O)O)C(=O)O)C(=O)O)C(=O)O  E. coli expressing blaNDM-1  RC in MHB, NDM-1    >64 µg/mL
4  Cc1ccc(SC[C@@H](N)CN[C@@H](CN[C@@H](CC(=O)O)C(=O)O)C(=O)O)cc1  E. coli expressing blaNDM-1  RC in MHB, NDM-1     32 µg/mL
5  N[C@@H](CN[C@@H](CN[C@@H](Cc1cccs1)C(=O)O)C(=O)O)C(=O)O  E. coli expressing blaNDM-1  RC in MHB, NDM-1     64 µg/mL
6  NC(Cc1ccc(O)cc1)C(=O)N[C@@H](CN[C@@H](CN[C@@H](CC(=O)O)C(=O)O)C(=O)O)C(=O)O (stereo in doubt)  E. coli expressing blaNDM-1  RC in MHB, NDM-1    >64 µg/mL

Recorded values, source paper PMC8829947.
